Ref: PubChem BioAssay AID1963959

Test system: T-47D spheroids with HUVEC/MSC, viability
Assay: Anticancer human tumor T-47D cell line growth inhibition [PI3K]; active = viability on the fitted dose curve at most 10% of control; inactive = the rest;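 also: spheroids exposed to agents for seven days before reading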
Details: second compound 1 µM; first compound 0.03 µM
Valid outcomes are listed here; reply with one: active, inactive

Cn1cnc2c(F)c(Nc3ccc(Br)cc3Cl)c(C(=O)NOCCO)cc21 + Cc1nc(NC(=O)N2CCCC2C(N)=O)sc1-c1ccnc(C(C)(C)C(F)(F)F)c1    inactive
Cn1cnc2c(F)c(Nc3ccc(Br)cc3Cl)c(C(=O)NOCCO)cc21 + CC(Nc1ncnc2nc[nH]c12)c1cc2cccc(Cl)c2c(=O)n1-c1ccccc1    inactive
Cn1cnc2c(F)c(Nc3ccc(Br)cc3Cl)c(C(=O)NOCCO)cc21 + CC(Nc1ccc2c(c1)OCCn1cc(N3C(=O)OCC3C(F)F)nc1-2)C(N)=O    inactive

-- ask So what was the verdict on Cn1cnc2c(F)c(Nc3ccc(Br)cc3Cl)c(C(=O)NOCCO)cc21 + COc1c(OCCCN2CCOCC2)ccc2c3n(c(=NC(=O)c4cnc(N)nc4)nc12)CCN3 in this test?
-- reply active
